Cited source: PubChem BioAssay (NCI)

Kindly state TGI for each of the entries shown.
- System: IGROV1 ovarian
- assay.info: NCI tumour cell line growth inhibition, 384-well format
Give bare numbers, in nM.

# count of solved cases: 2
Nc1ncccc1-c1nc2ccc(-c3ccccc3)nc2n1-c1ccc(C2(N)CCC2)cc1
1810
C=CCn1c(=O)c2cnc(Nc3ccc(N4CCN(C)CC4)cc3)nc2n1-c1cccc(C(C)(C)O)n1
1090

Now consider the entry below.
# TGI (compound: C[C@@H]1COCCN1c1cc(-c2ccnn2C)c2ccnc(-c3ccn[nH]3)c2n1 ) is 2490
